tested target: noradrenaline (NA) reuptake sites (Rattus norvegicus, UniProt Q63380)
Construct: Frontal cortical tissue from the brains of male Charles River rats
Sequence (Q63380 1-617): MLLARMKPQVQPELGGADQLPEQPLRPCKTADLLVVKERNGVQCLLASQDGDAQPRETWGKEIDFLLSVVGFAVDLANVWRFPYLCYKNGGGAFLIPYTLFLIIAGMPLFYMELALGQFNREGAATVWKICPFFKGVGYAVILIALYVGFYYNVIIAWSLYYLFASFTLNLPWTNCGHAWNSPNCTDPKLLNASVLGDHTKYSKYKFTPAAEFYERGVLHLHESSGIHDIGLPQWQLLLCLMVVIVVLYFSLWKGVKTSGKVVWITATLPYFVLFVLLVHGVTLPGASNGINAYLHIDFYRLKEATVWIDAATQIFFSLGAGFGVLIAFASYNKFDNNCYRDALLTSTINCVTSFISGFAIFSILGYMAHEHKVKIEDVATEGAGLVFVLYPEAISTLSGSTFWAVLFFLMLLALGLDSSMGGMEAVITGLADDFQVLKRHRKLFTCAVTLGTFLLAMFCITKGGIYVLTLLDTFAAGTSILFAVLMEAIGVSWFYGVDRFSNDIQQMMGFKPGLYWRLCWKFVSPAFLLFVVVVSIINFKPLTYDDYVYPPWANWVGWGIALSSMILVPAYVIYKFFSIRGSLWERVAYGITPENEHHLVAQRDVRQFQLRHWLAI
protocol details: NA uptake: displacement of [3H]nisoxetine from noradrenaline reuptake sites, rat frontal cortical membranes
experimental parameters: [3H]nisoxetine 0.6 nM, rat frontal cortical membranes; fit to data from three experiments
measurement name: Ki (nM)

compound="OCC1=C(c2ccc3sccc3c2)N2CCN=C2S1 [Example 28]" measurement_name=Ki number=5.4
compound="Br.CCC1=C(c2cccc3sccc23)N2CCN=C2S1 [Example 13, hydrobromide]" measurement_name=Ki number=3.6
compound="CSC1=C(c2cccc3sccc23)N2CCN=C2S1.O=C(O)/C=C/C(=O)O [Example 32, fumarate]" measurement_name=Ki number=3.5

* * *

A collection of compounds and their measured Ki
tested target: noradrenaline (NA) reuptake sites (Rattus norvegicus)
Construct: Frontal cortical tissue from the brains of male Charles River rats
protocol details: NA uptake: displacement of [3H]nisoxetine from noradrenaline reuptake sites, rat frontal cortical membranes
experimental parameters: [3H]nisoxetine 0.6 nM, rat frontal cortical membranes; fit to data from three experiments
measurement name: Ki (nM)

compound=OCC1=C(c2cccc3sccc23)N2CCN=C2S1 number=2.9
compound="CC1=C(c2cccc3sccc23)N2CCN=C2S1.Cl [Example 9, hydrochloride]" number=5.9
compound="Br.Oc1cccc2sc(C3=CSC4=NCCN34)cc12 [Example 12, hydrobromide]" number=5.8
compound="Br.CC1=C(c2cc3ccccc3s2)N2CCN=C2S1 [Example 6, hydrobromide]" number=21
compound="CCC1=C(c2cccc3sccc23)N2CCN=C2S1.O=C(O)/C=C/C(=O)O [Example 25, fumarate]" number=5.4
compound=OCC1=C(c2cc3ccccc3s2)N2CCN=C2S1 number=18
compound="CC(C)C1=C(c2cccc3sccc23)N2CCN=C2S1.O=C(O)/C=C/C(=O)O [Example 35, fumarate]" number=5.5
compound="Br.CC1=C(c2ccc(F)c3sccc23)N2CCN=C2S1 [Example 38, hydrobromide]" number=1.2
compound="Br.CC1=C(c2cc3c(Cl)cccc3s2)N2CCN=C2S1 [Example 10, hydrobromide]" number=69.5
compound="Br.CC1=C(c2ccc3sccc3c2)N2CCN=C2S1 [Example 21, hydrobromide]" number=5.5
compound="Br.CC1=C(c2cc3c(F)cccc3s2)N2CCN=C2S1 [Example 7, hydrobromide]" number=9.5
compound="Br.CC1=C(c2cccc3sccc23)N2CCN=C2S1 [Example 8, hydrobromide]" number=6.1

* * *

tested target: noradrenaline (NA) reuptake sites (Rattus norvegicus, UniProt Q63380)
Construct: Frontal cortical tissue from the brains of male Charles River rats; from tissue; host or cells: rat frontal cortical membranes
protocol details: NA uptake: displacement of [3H]nisoxetine from noradrenaline reuptake sites, rat frontal cortical membranes
Assay type: binding
experimental parameters: read-out: NA uptake % displacement at 10^−6 M
# label = Satisfied if inhibition at 1 µM >= 70% else Not satisfied

compound="Br.CC1=C(c2cc3c(Cl)c(Cl)ccc3s2)N2CCN=C2S1 [Example 24, hydrobromide]" class_name="Not satisfied"
compound="Br.COc1cccc2cc(C3=C(C)SC4=NCCN43)sc12 [Example 26, hydrobromide]" class_name="Not satisfied"
compound="CC1=C(c2cccc3sc(C)cc23)N2CCN=C2S1.Cl [Example 33, hydrochloride]" class_name=Satisfied
compound="Br.CCC1=C(c2cc3cc(Cl)ccc3s2)N2CCN=C2S1 [Example 11, hydrobromide]" class_name=Satisfied
compound="Cc1cccc2sc(C3=CSC4=NCCN34)cc12.Cl [Example 14, hydrochloride]" class_name=Satisfied
